Hi there, I'd appreciate the recorded melting point for every entry that follows.

molecule	melting point
CCC(=O)NC(C#N)c1ccc(-c2noc(C(F)(F)F)n2)cc1 (stereo not drawn) [Compound 1.100]	185 to 186 °C
CC(C)C(=O)NCc1ccc(-c2noc(C(F)(F)F)n2)nc1 [Compound 1.106]	151 to 153 °C
CC(=O)NCc1ccc(-c2noc(C(F)(F)F)n2)cc1 [Compound 1.101]	130 to 135 °C

Required: melting point, one value per molecule below.
1. O=C(NCc1ccc(-c2noc(C(F)(F)F)n2)cc1)C(F)(F)F [Compound 1.102]
2. C#CCOC(=O)NCc1ccc(-c2noc(C(F)(F)F)n2)cc1 [Compound 2.19]
3. CN(C)C(=O)NCc1ccc(-c2noc(C(F)(F)F)n2)cc1 [Compound 3.1]

Result block:
["146 to 149 °C", "93 to 95 °C", "118 to 125 °C"]

Data credit: patent US10501425B2
